Origin of the recorded values: patent EP0269947B2

Dye-Uptake HSV-1 ID50 overview
Test system: HSV-1
assay-remarks: Colorimetric dye-uptake assay (neutral red), herpes simplex virus type 1
Assay type: cell-based, Herpes simplex virus (HSV)
Parameters: unit not given here
details: vero cells, 48 hr incubation, neutral red stain; ID50 by linear regression
assay-endpoint: Dye-Uptake HSV-1 ID50

[
  {
    "molecule": "Nc1nc2c(ncn2COCCO)c(=O)[nH]1 [Acyclovir, reference compound]",
    "assay-endpoint": "Dye-Uptake HSV-1 ID50",
    "test-result": 0.5
  },
  {
    "molecule": "CC(COCP(=O)(O)O)n1cnc2c(=O)[nH]c(N)nc21 (centres unmarked)",
    "assay-endpoint": "Dye-Uptake HSV-1 ID50",
    "test-result": 8.7
  },
  {
    "molecule": "Nc1ncnc2c1ncn2C[C@@H](CO)OCP(=O)(O)O [reference compound]",
    "assay-endpoint": "Dye-Uptake HSV-1 ID50",
    "test-result": 15.1
  },
  {
    "molecule": "CCOP(=O)(O)COCCn1cnc2c(=O)[nH]c(N)nc21",
    "assay-endpoint": "Dye-Uptake HSV-1 ID50",
    "test-result": 12
  },
  {
    "molecule": "COP(=O)(O)COCCn1cnc2c(=O)[nH]c(N)nc21",
    "assay-endpoint": "Dye-Uptake HSV-1 ID50",
    "test-result": 1.5
  }
]
